System: K4 kissing-loop RNA reporter;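 further: bound reporter read as fluorescence of individual clusters on recovered sequencing chips by microscopy, with normalized cluster intensities fitted with a binding model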
Experiment: apparent KD of K4 kissing-loop reporter; higher = weaker reporter binding
Conditions: Eterna round: R107; input ligand: theophylline 20 uM
In this section, each of the sequences is paired with its reported apparent KD of K4 kissing-loop reporter.
Respond with the bare value in nM.

Guide cases for apparent KD of K4 kissing-loop reporter, answers given:
- orderedResidues: "GCCGUACGCAUGGAUACCAGUCUACAUCGCAGUGAUGUUGCGUAGUUCAGAUUAACUGCCGACCCUUGGCAGCCAUGCGUACGGC"
  apparent KD of K4 kissing-loop reporter [nM]: 118
- orderedResidues: "AACCACUCGUUACAUCACUAUCGAGUGGAACGAGGACCGGUACGGCCGCCACUCGGUAUCUUGCAGUGAUGUUGCAAGAAAGAAU [KL-SSTryp-A #dotplot2 strengthened]"
  apparent KD of K4 kissing-loop reporter [nM]: 164
- orderedResidues: "UGAUAAAGCAGUGAUGUUGCAAGUAAUGAUACCAGUUAAGAAGAGAACCCUUGGCAGCAUAAAGUGCGCUCUAAUGAGUGUGCUU [whbob_SS_Theo_A_w51]"
  apparent KD of K4 kissing-loop reporter [nM]: 169
- orderedResidues: "AAGGUGAUCCUCGAUACCAGCUCAAAAUGAGUGAUGUUCAUGAAAGCCUGGAAACAGGCGAGCCCUUGGCAGCGAGUUACAUCAA [KL-SSTheoB8]"
  apparent KD of K4 kissing-loop reporter [nM]: 134

Exam item: Supply recorded apparent KD of K4 kissing-loop reporter for CGAGUGAUGUUCGUUUUUUACUCUUUUUGACAGGAUAUGCGGAAACGCAGAAGGGUCACCUUUGAGUUAAAAGGAGUUAUUUUUU [Ex FMN A 19] here.
Marked response: 305

Exam item: Supply recorded apparent KD of K4 kissing-loop reporter for AGACUACUGAUAGGAUAUAACAUCCUAGUCGUAUACCGAAAGGUAUACGAUUUCCUUCUAGUGAUGUUAGAAGGGUCGGUAGUCA [Omei KL FMN B Exc B v11] here.
Marked response: 81.1

Exam item: Supply recorded apparent KD of K4 kissing-loop reporter for AAGUGUUCUAGUGAUACCAGACAUUUCUAUUUUAUCUUUAUAGCUAAGUGAUGUUUAGCAGUCCCUUGGCAGCACUAUUUCACUA [JR_SSTheophyB_Sub017] here.
Marked response: 160

* * *

System: MS2 coat protein
Assay: apparent KD of MS2 coat protein; higher = weaker reporter binding
Details: Eterna round: R107; input ligand: theophylline 20 uM
In this section, each of the sequences is paired with its reported apparent KD of MS2 coat protein.
Respond with the bare value in nM.

Guide cases for apparent KD of MS2 coat protein, answers given:
- orderedResidues: "GGGUACAUCGCGGCCGCCACUCAUGUAAAUUCAUGAGGAUCACCCAUGACGAUGGAGACAUCGGAGAGGACCGGGUGAUGUACCG"
  unitSymbol: "nM"
  apparent KD of MS2 coat protein: 23
- orderedResidues: "UUGGGUUUGUGAAGGAGCGGGAAAUAUAUAUAUAUAAUCCUAACAUGAGGAUCACCCAUGUCCCAGGUAGGUCGCGCGGGUUUGG [12.N]"
  unitSymbol: "nM"
  apparent KD of MS2 coat protein: 63.5
- orderedResidues: "AAUUUUAACGGAAGGAGCGUCACGUAAUUCAUACAUGAGGAUCACCCAUGUUAGUUGUAGAGACAGGUAGGUCGCCGUUAUUUGA [JR_AAArginiB_Sub025]"
  unitSymbol: "nM"
  apparent KD of MS2 coat protein: 20.9

Exam item: Return reported apparent KD of MS2 coat protein for target or system MS2 coat protein, item UUAUGAUGUUCCGAUACCAGCCAUGUAGUUCUAACUUAACAUGAGGAUCACCCAUGUACCGGCCCUUGGCAGCGGAUGUGGAUUA [#22Same State - Theophylline B] .
Marked response: 29.3

Exam item: Return reported apparent KD of MS2 coat protein for target or system MS2 coat protein, item AGUAACAUGAGGAUCACCCAUGUAUGAGAAGGAGCGUGUUUUAACACAGGUAGGUCGCUCAAUAUUAUUUACUAGCGAAAGCUAG [JR_SSArginiA_Sub007] .
Marked response: 23.3

Exam item: Return reported apparent KD of MS2 coat protein for target or system MS2 coat protein, item UUUGUAAUUGUCUGGUAGAUUUAUUUAUUUCGAGGACCGGUACGGCCGCCACUCGUUAAUUACAUGAGGAUCACCCAUGUUAGCU [JR_ExcTryptoA_Sub008] .
Marked response: 17.1

Exam item: Return reported apparent KD of MS2 coat protein for target or system MS2 coat protein, item UUCACAUGGUAUGAAUAUACAUACAAGAAACGAGGACCGGUACGGCCGCCACUCGUGCCGGAAACAUGAGGAUCACCCAUGUGUU [AK1.2 Exclusion TrypA mod IceBolt] .
Marked response: 41.2

Exam item: Return reported apparent KD of MS2 coat protein for target or system MS2 coat protein, item CAUUGAGCAGCUGAUACCAGUGCCUGAACUUACAUGAGGAUCACCCAUGUAUGCCCAAAACACCCUUGGCAGCAGAGGAAGAUCG [theeternabot_sameState_MS2_Theo_B_38] .
Marked response: 18.9

Exam item: Return reported apparent KD of MS2 coat protein for target or system MS2 coat protein, item ACAUGAGGAUCACCCAUGUAAUCCUCUGAAGGAGCGAGAAAUAACUCAGGUAGGUCGCAGUUCAAAACAUGAGGAUCACCCAUGU [Exclusion Arginine A GF 9] .
Marked response: 52.6

Exam item: Return reported apparent KD of MS2 coat protein for target or system MS2 coat protein, item AGUACUCGAACGGAUACCAGCCGGACAUGAGGAUCACCCAUGUCCUACCAUGGUUCGGUUGGCCCUUGGCAGCCGUUCGUGUACA [Omei Theo B SS A v3] .
Marked response: 204
